The measurements presented in this section are drawn from patent US6169181A.

system: HIV-1 protease (Human immunodeficiency virus type 1 group M subtype B)
testDetails: biochemical
settings: Table I; Dose 10.000 μM; read-out: Protease % Inhib
assayEndpoint: inhibition at 10 µM (%)
Lab book: enter the figure in %, no units written.

Notebook: CCC(CCNS(=O)(=O)c1cn(C)cn1)c1cc(O)c(C(c2cccc(NS(=O)(=O)c3cn(C)cn3)c2)C2CC2)c(=O)o1 (stereo not shown) [Example 107] , inhibition at 10 µM read as 110

Notebook: N#Cc1ccc(S(=O)(=O)Nc2cccc(C(c3c(O)cc(C(CC4CC4)CC4CC4)oc3=O)C3CC3)c2)cc1 (stereo not shown) [Example 95] , inhibition at 10 µM read as 110

Notebook: CC[C@H](Cc1ccccc1)c1cc(O)c(C(c2cccc(NS(=O)(=O)c3cn(C)cn3)c2)C2CC2)c(=O)o1 (single isomer, unassigned) [Example 138] , inhibition at 10 µM read as 94.8

Notebook: CCC(CC1CCCOC1)c1cc(O)c(C(c2cccc(NS(=O)(=O)c3cn(C)cn3)c2)C2CC2)c(=O)o1 (stereo not shown) [Example 145B] , inhibition at 10 µM read as 102

Notebook: O=c1oc(C(CC2CC2)CC2CC2)cc(O)c1C(c1cccc(NS(=O)(=O)c2nc3ccccc3[nH]2)c1)C1CC1 (stereo not shown) [Example 101] , inhibition at 10 µM read as 102

Notebook: CC(C)CC(c1cccc(NS(=O)(=O)c2cn(C)cn2)c1)c1c(O)c2c(oc1=O)CCCCCC2 (single isomer, unassigned) [Example 8] , inhibition at 10 µM read as 105

Notebook: CCCC1(CCc2ccccc2)CC(O)=C(C(CC)c2cccc(NS(=O)(=O)c3ccc(C#N)cc3)c2)C(=O)O1 (stereo not shown) [Example 40] , inhibition at 10 µM read as 88.7

Notebook: CCC(CCBr)c1cc(O)c(C(c2cccc(NS(=O)(=O)c3cn(C)cn3)c2)C2CC2)c(=O)o1 (stereo not shown) [Example 108] , inhibition at 10 µM read as 108

Notebook: CCCC1(CCc2ccccc2)CC(O)=C(C(c2cccc(NS(=O)(=O)c3ccc(C#N)cc3)c2)C2CC2)C(=O)O1 (stereo not shown) [Example 58] , inhibition at 10 µM read as 100

Notebook: CC[C@H](Cc1ccccc1)c1cc(O)c(C(c2cccc(NS(=O)(=O)c3nc4ccccc4[nH]3)c2)C2CC2)c(=O)o1 (stereo partly shown) [Example 146] , inhibition at 10 µM read as 103

Notebook: Cc1ccc(S(=O)(=O)Cc2cccc(C(c3c(O)c4c(oc3=O)CCCCCC4)C3CC3)c2)cc1 (stereo not shown) [Example 13] , inhibition at 10 µM read as 98.6

Notebook: CC(C)CC(c1cccc(NS(=O)(=O)c2cn(C)cn2)c1)c1c(O)c2c(oc1=O)CCCCCC2 (single isomer, unassigned) [Example 9] , inhibition at 10 µM read as 107

Notebook: CCCC1(CCc2ccc(F)cc2)CC(O)=C(C(c2cccc(NS(=O)(=O)c3ccc(C#N)cn3)c2)C(C)(C)C)C(=O)O1 (stereo not shown) [Example 253] , inhibition at 10 µM read as 97

* * *

system: HIV-1 protease (Human immunodeficiency virus type 1 group M subtype B, UniProt P04585)
testDetails: biochemical
settings: Table II; enzyme HIV-1; DOSE 0.370 (unit not given)
assayEndpoint: PROTEASE % INHIB. (%)
Lab book: enter the figure in %, no units written.

Notebook: CCCC1(CCC)CC(O)=C(C(c2cccc(NS(=O)(=O)c3cn(C)cn3)c2)C(C)(C)C)C(=O)O1 (single isomer, unassigned) [Example 318] , PROTEASE % INHIB. read as 106.35

Notebook: CCC[C@@]1(CCc2ccccc2)CC(O)=C([C@@H](c2cccc(NS(=O)(=O)c3cn(C)cn3)c2)C(C)(C)C)C(=O)O1 (single isomer, unassigned) [Example 310] , PROTEASE % INHIB. read as 50.11

Notebook: CCCC1(CCc2ccc(F)cc2)CC(O)=C(C(c2cccc(NS(=O)(=O)c3cccc4cccnc34)c2)C(C)(C)C)C(=O)O1 (stereo not shown) , PROTEASE % INHIB. read as 88.19

Notebook: CCCC1(CCc2ccccc2)CC(O)=C(C(c2cccc(NS(=O)(=O)c3ccccn3)c2)C(C)(C)C)C(=O)O1 (single isomer, unassigned) , PROTEASE % INHIB. read as 86.99

Notebook: CCC[C@]1(CCc2ccc(F)cc2)CC(O)=C([C@H](c2cccc(NS(=O)(=O)c3ccc(C#N)cn3)c2)C(C)(C)C)C(=O)O1 (single isomer, unassigned) , PROTEASE % INHIB. read as 78.32

Notebook: CCCC1(CCC)CC(O)=C(C(c2cccc(NS(=O)(=O)c3ccc(C(F)(F)F)cn3)c2)C(C)(C)C)C(=O)O1 (single isomer, unassigned) [Example 285] , PROTEASE % INHIB. read as 95.8

Notebook: CCCC1(CCC)CC(O)=C(C(CC)c2cccc(NS(=O)(=O)c3ccc(C(F)(F)F)cn3)c2)C(=O)O1 (stereo not shown) , PROTEASE % INHIB. read as 94.98

* * *

system: HIV-1 protease (Human immunodeficiency virus type 1 group M subtype B)
testDetails: biochemical
settings: read-out: Protease % Inhib
I'd appreciate it if you could supply inhibition at 10 µM values for the items below.
Lab book: enter the figure in %, no units written.

Notebook: COc1ccc2c(O)c(C(c3cccc(NS(=O)(=O)c4cn(C)cn4)c3)C3CC3)c(=O)oc2c1 (stereo not shown) , inhibition at 10 µM read as 95.5

Notebook: CCCC1(CCc2ccccc2)CC(O)=C(C(c2cccc(NS(=O)(=O)c3ccc(C#N)cn3)c2)C(C)(C)C)C(=O)O1 (stereo not shown) , inhibition at 10 µM read as 94.2

Notebook: COCCOCCOCCOc1ccc2c(O)c(C(c3cccc(NS(=O)(=O)c4ccccn4)c3)C3CC3)c(=O)oc2c1 (stereo not shown) , inhibition at 10 µM read as 104

Notebook: CCCCCC1(CCCCC)CC(O)=C(C(CC)c2cccc(NS(=O)(=O)c3cn(C)cn3)c2)C(=O)O1 (stereo not shown) , inhibition at 10 µM read as 83.6

Notebook: CCCC1(CCc2ccccc2)CC(O)=C(C(CC)c2cccc(NS(=O)(=O)c3cn(C)cn3)c2)C(=O)O1 (stereo not shown) , inhibition at 10 µM read as 85.9

Notebook: Cn1cnc(S(=O)(=O)Nc2cccc(C(c3c(O)cc(C(CC4CC4)CC4CC4)oc3=O)C3CC3)c2)c1 (stereo not shown) , inhibition at 10 µM read as 116

Notebook: CCCC1(CCc2ccccc2)CC(O)=C(C(CC)c2cccc(NS(=O)(=O)c3cccc4cccnc34)c2)C(=O)O1 (stereo not shown) , inhibition at 10 µM read as 91.4

* * *

I'd appreciate it if you could supply inhibition at 10 µM values for the items below.
system: HIV-1 protease (Human immunodeficiency virus type 1 group M subtype B)
testDetails: biochemical
settings: Table I; Dose 10.000 μM; read-out: Protease % Inhib

Notebook: CN(c1cccc(C(c2c(O)c3c(oc2=O)CCCCCC3)C2CC2)c1)S(=O)(=O)c1ccccc1 (stereo not drawn) [Example 194] , inhibition at 10 µM read as 85.5%

Notebook: CCC(CCOCCOC)c1cc(O)c(C(c2cccc(NS(=O)(=O)c3cn(C)cn3)c2)C2CC2)c(=O)o1 (stereo not drawn) [Example 105] , inhibition at 10 µM read as 111%

Notebook: CCCC1(CCC)CC(O)=C(C(CC)c2cccc(NS(=O)(=O)c3cccc4cccnc34)c2)C(=O)O1 (stereo not drawn) [Example 43] , inhibition at 10 µM read as 102%

Notebook: CCC(Cc1ccccc1)c1cc(O)c(C(c2cccc(NS(=O)(=O)c3ccc([N+](=O)[O-])cc3)c2)C2CC2)c(=O)o1 (stereo not drawn) [Example 150] , inhibition at 10 µM read as 107%

Notebook: CCCC1(CCC)CC(O)=C(C(c2cccc(NS(=O)(=O)c3cn(C)cn3)c2)C2CC2)C(=O)O1 (single isomer, unassigned) [Example 56] , inhibition at 10 µM read as 115%

Notebook: CC[C@@H](Cc1ccccc1)c1cc(O)c(C(c2cccc(NS(=O)(=O)c3cn(C)cn3)c2)C2CC2)c(=O)o1 (single isomer, unassigned) [Example 139] , inhibition at 10 µM read as 99.3%

* * *

I'd appreciate it if you could supply inhibition at 3.3 µM values for the items below.
system: HIV-1 protease (Human immunodeficiency virus type 1 group M subtype B)
testDetails: biochemical
settings: read-out: Protease % Inhib

Notebook: O=c1oc(C(CC2CC2)CC2CC2)cc(O)c1C(c1cccc(NS(=O)(=O)c2ccc(F)cc2)c1)C1CC1 (stereo not shown) [Example 94] , inhibition at 3.3 µM read as 105%

Notebook: CCCC1(CCc2ccccc2)CC(O)=C(C(CC)c2cccc(NS(=O)(=O)c3ccc(F)cc3)c2)C(=O)O1 (stereo not shown) [Example 93A] , inhibition at 3.3 µM read as 109%

Notebook: CCCC1(CCc2ccccc2)CC(O)=C(C(CC)c2cccc(NS(=O)(=O)c3cccc4cccnc34)c2)C(=O)O1 (stereo not shown) [Example 42] , inhibition at 3.3 µM read as 102%

Notebook: CCCC1(CCc2ccccc2)CC(O)=C(C(CC)c2cccc(NS(=O)(=O)c3ccc(C#N)cn3)c2)C(=O)O1 (stereo not shown) [Example 263] , inhibition at 3.3 µM read as 98.1%

Notebook: CCCC1(CCc2ccccc2)CC(O)=C(C(CC)c2cccc(NS(=O)(=O)c3cn(C)cn3)c2)C(=O)O1 (stereo not shown) [Example 41] , inhibition at 3.3 µM read as 101%

Notebook: CCCCCC1(CCCCC)CC(O)=C(C(CC)c2cccc(NS(=O)(=O)c3cn(C)cn3)c2)C(=O)O1 (stereo not shown) [Example 63] , inhibition at 3.3 µM read as 87.4%

Notebook: O=c1oc2c(c(O)c1C(c1cccc(CS(=O)(=O)c3ccccc3)c1)C1CC1)CCCCCC2 (stereo not shown) [Example 10] , inhibition at 3.3 µM read as 119%
